Endpoint summary: pKi, system: D(3) dopamine receptor (Rattus norvegicus), multiple sources combined.
Sequence (P19020 whole entry): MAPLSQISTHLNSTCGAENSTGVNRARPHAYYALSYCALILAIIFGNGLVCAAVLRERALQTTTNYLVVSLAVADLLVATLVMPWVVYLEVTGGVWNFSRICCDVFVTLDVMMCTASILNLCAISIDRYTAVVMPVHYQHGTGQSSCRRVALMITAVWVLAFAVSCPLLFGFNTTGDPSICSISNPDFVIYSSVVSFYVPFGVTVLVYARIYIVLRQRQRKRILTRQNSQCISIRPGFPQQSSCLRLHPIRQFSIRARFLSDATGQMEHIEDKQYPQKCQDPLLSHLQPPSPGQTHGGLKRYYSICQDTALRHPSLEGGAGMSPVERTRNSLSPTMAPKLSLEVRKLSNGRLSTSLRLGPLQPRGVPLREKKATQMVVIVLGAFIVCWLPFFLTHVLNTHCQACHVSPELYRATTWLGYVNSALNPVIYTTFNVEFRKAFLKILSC
pKi: −log10 of the molar value.
Lab note: compare pKi against 7. Equal or greater, write True. Smaller, write False.

compound: CCCN(CC[C@H]1CC[C@H](NC(=O)c2ccc(-n3cccn3)cc2)CC1)[C@H]1CCc2nc(N)sc2C1
assayed_target: D(3) dopamine receptor (Rattus norvegicus)
answer_label: True
//
compound: c1ccc(-c2ccc(N3CCN(Cc4c[nH]c5ncccc45)CC3)cc2)cc1
assayed_target: D(3) dopamine receptor (Rattus norvegicus)
answer_label: False
//
compound: Cc1ccc(C2CN(CCCSc3nnc(-c4ocnc4C)n3C)CCO2)cc1 (racemic)
assayed_target: D(3) dopamine receptor (Rattus norvegicus)
answer_label: False
//
compound: CCCN(CCC/C=C/c1ccc(O)c(OC)c1)C1CCc2nc(N)sc2C1 (racemic)
assayed_target: D(3) dopamine receptor (Rattus norvegicus)
answer_label: True
//
compound: Cn1c(SCCCN2CCOC(c3ccc(C(F)(F)F)cc3)C2)nnc1-c1ccc(-c2ncco2)cc1 (racemic)
assayed_target: D(3) dopamine receptor (Rattus norvegicus)
answer_label: True

Inquiry: Test whether the compound "COc1ccccc1N1CCN(CCCCCCNC(=O)c2ccc3ccccc3c2)CC1" records pKi of 7 or higher.
Reply text: True

Inquiry: Also CCCN(CCN1CCN(Cc2c[nH]c3cccc(F)c23)CC1)C1CCc2nc(N)sc2C1 (racemic) , if possible.
Reply text: True

Inquiry: Okay, and "CCCN(CCN1CCN(c2ccccc2)CC1)[C@@H]1CCc2ccc(N)cc2C1" ?
Reply text: True

Inquiry: Query CCCN(CCN1CCN(c2ccccc2)CC1)C1CCc2ccc(NC(C)=O)cc2C1 (centres undefined) next
Reply text: False

Inquiry: Field entry: CCCN(CCN1CCN(Cc2ccc3[nH]ccc3c2)CC1)C1CCc2nc(N)sc2C1 (centres undefined)
Reply text: True

Inquiry: Now the same for "CCCN(CC[C@H]1CC[C@H](NC(=O)c2ccc(-c3noc(C(C)C)n3)cc2)CC1)[C@H]1CCc2nc(N)sc2C1"
Reply text: True

Inquiry: Same question for "CCCN(CC[C@H]1CC[C@H](NS(=O)(=O)c2ccc(OC)cc2)CC1)[C@H]1CCc2nc(N)sc2C1" please.
Reply text: True

Inquiry: Here is the next compound: "O=C(CCCCCN1CCN(c2noc3ccccc23)CC1)c1ccccc1O"
Reply text: False

Inquiry: What about this compound? "COc1cc(NC(=O)C2CCCC2)c(Cl)cc1C(=O)N[C@H]1CCN(Cc2ccccc2)C1"
Reply text: True

Inquiry: Same read-out for "Fc1ccc(N2CCN(Cc3c[nH]c4ncccc34)CC2)cc1" ?
Reply text: False

Inquiry: // same read-out, input: "CCCN(CCN1CCN(c2ccccc2)CC1)[C@H]1CCc2ccc(O)cc2C1"
Reply text: True
